Provenance of the data: BigSolDB 2.1

details: in methanol, 318.15 K
Measure: solubility (mole fraction)
The response must contain the number and no unit.

Requested field: solubility (mole fraction). Item: Nc1ccc(Cl)nn1
0.00721

====

conditions: in ethanol, 338.15 K
Measure: solubility (mole fraction)
The response must contain the number and no unit.

Requested field: solubility (mole fraction). Item: Nc1ccc(Cl)nn1
0.00994
